- assay: Human hepatocyte stability of D0, D6 and D8 5-MeO-DMT analogues
- Type: in vitro ADME
- condition-parameters: cryopreserved pooled human hepatocytes in suspension; cryopreserved pooled human hepatocytes, 0.5×10^6 viable cells/mL, 60 min; read-out: Qualified CLint (μL/min/10^6 cells)
The entries below come with measured hepatocyte CLint values attached.
Report the figure in µL/min/1e6 cells without appending any unit label.

{"smiles-text": "O=C(c1ccc(OCCN2CCCCC2)cc1)c1c(-c2ccc(O)cc2)sc2cc(O)ccc12", "reported-metric": "hepatocyte CLint", "measured": 152}

# ---- query compound ----
Incoming: Return the recorded hepatocyte CLint value; entry: COc1ccc2[nH]cc(CCN(C)C)c2c1
Outgoing: 104

###

The entries below come with measured Intrinsic Clearance (μL/min/mg protein) values attached.
- assay: Human liver mitochondrial fraction intrinsic clearance
- Format: in vitro ADME
- condition-parameters: 0.5 mg/mL human liver mitochondrial fraction
Report the figure in μL/min/mg protein without appending any unit label.

Previously resolved entries follow.
{"smiles-text": "[2H]C([2H])([2H])N(C([2H])([2H])[2H])C([2H])([2H])Cc1c[nH]c2ccccc12", "reported-metric": "Intrinsic Clearance (μL/min/mg protein)", "quantity-unit": "μL/min/mg protein", "measured": 10.9}
{"smiles-text": "NCc1ccccc1", "reported-metric": "Intrinsic Clearance (μL/min/mg protein)", "quantity-unit": "μL/min/mg protein", "measured": 60.0}
{"smiles-text": "CN(C)CCc1c[nH]c2ccccc12", "reported-metric": "Intrinsic Clearance (μL/min/mg protein)", "quantity-unit": "μL/min/mg protein", "measured": 161.0}

Incoming: Return the recorded Intrinsic Clearance (μL/min/mg protein) value; entry: NCCc1c[nH]c2ccc(O)cc12
Outgoing: 151.0

###

- assay: Rat hepatocyte stability of D0, D6 and D8 5-MeO-DMT analogues
- Type: in vitro ADME
- condition-parameters: cryopreserved pooled rat hepatocytes in suspension; cryopreserved pooled rat hepatocytes, 0.5×10^6 viable cells/mL, 60 min; read-out: Qualified t1/2
reported-metric: half-life at 1 μM (min)
Report the figure in min without appending any unit label.

{"smiles-text": "O=C(c1ccc(OCCN2CCCCC2)cc1)c1c(-c2ccc(O)cc2)sc2cc(O)ccc12", "half-life at 1 μM [min]": 11.1}

# ---- query compound ----
Incoming: Return the recorded half-life at 1 μM value; entry: COc1ccc2[nH]cc(CCN(C)C)c2c1
Outgoing: 4.46

###

- assay: Human half-life and clearance of DMT calculated from modelled literature data
- condition-parameters: in vivo, calculated from modelled data of Timmermann et al., read-out: clearance rate
reported-metric: clearance (mL/min)
Report the figure in mL/min without appending any unit label.

Incoming: Return the recorded clearance value; entry: CN(C)CCc1c[nH]c2ccccc12
Outgoing: 24500

###

The entries below come with measured half-life values attached.
- assay: Human hepatocyte stability of D0, D6 and D8 5-MeO-DMT analogues
- Assay type: in vitro ADME
- condition-parameters: cryopreserved pooled human hepatocytes in suspension; cryopreserved pooled human hepatocytes, 0.5×10^6 viable cells/mL, 60 min; read-out: Qualified t1/2
Report the figure in min without appending any unit label.

{"smiles-text": "O=C(c1ccc(OCCN2CCCCC2)cc1)c1c(-c2ccc(O)cc2)sc2cc(O)ccc12", "half-life, min": 9.13}

# ---- query compound ----
Incoming: Return the recorded half-life value; entry: COc1ccc2[nH]cc(CCN(C)C)c2c1
Outgoing: 13.3

Data provenance is patent US11660289B2.
